assayed system: UniProt P49684
Sequence (P49684 whole entry): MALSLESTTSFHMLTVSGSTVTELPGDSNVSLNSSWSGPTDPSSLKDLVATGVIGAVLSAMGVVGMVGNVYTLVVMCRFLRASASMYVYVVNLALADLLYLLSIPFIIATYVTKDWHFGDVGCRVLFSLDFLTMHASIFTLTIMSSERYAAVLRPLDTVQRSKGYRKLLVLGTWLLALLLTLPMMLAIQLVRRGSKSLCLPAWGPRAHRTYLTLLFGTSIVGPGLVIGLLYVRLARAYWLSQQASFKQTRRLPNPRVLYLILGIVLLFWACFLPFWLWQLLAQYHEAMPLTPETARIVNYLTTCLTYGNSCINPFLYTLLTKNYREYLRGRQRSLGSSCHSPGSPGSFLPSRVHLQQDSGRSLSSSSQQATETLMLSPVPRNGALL
assay overview: Agonist activity at rat urotensin 2 receptor expressed in CHO cells assessed as calcium mobilization by FLIPR
Where a SMILES comes first, the peptide text is derived from it. Bridges are numbered along the chain shown (N, C = ends).
measured metric: EC50 (nM)
Your answer should be a plain number; it is taken to be in nM.

EC50 in this record for CC(C)[C@H](NC(=O)[C@@H]1CSSC[C@H](NC(=O)[C@H](CC(=O)O)NC(=O)[C@H](C)NC(=O)[C@@H](NC(=O)CN)[C@@H](C)O)C(=O)N[C@@H](Cc2ccccc2)C(=O)N[C@@H](Cc2c[nH]c3ccccc23)C(=O)N[C@@H](CCCCN)C(=O)N[C@@H](Cc2ccc(O)cc2)C(=O)N1)C(=O)O (H-GTADCFWKYCV-OH; disulfide 5-10) : 0.29

Given item CC(C)[C@H](NC(=O)[C@@H]1CSSC[C@H](N)C(=O)N[C@@H](Cc2ccccc2)C(=O)N[C@@H](Cc2c[nH]c3ccccc23)C(=O)N[C@@H](CCCCN)C(=O)N[C@@H](Cc2ccc(O)cc2)C(=O)N1)C(=O)O (H-CFWKYCV-OH; disulfide 1-6) , the value recorded as its EC50 is 0.76

Form field EC50, entry CC(=O)N[C@H]1CSSC[C@@H](C(N)=O)NC(=O)[C@H](Cc2ccc(O)cc2)NC(=O)[C@H](CCCCN)NC(=O)[C@H](Cc2c[nH]c3ccccc23)NC(=O)[C@H](Cc2ccccc2)NC1=O : 1.6

Field EC50 (entry CC(C)[C@H](NC(=O)[C@@H]1CSSC[C@H](NC(=O)[C@H](CC(=O)O)NC(=O)[C@H](C)N)C(=O)N[C@@H](Cc2ccccc2)C(=O)N[C@@H](Cc2c[nH]c3ccccc23)C(=O)N[C@@H](CCCCN)C(=O)N[C@@H](Cc2ccc(O)cc2)C(=O)N1)C(=O)O (H-ADCFWKYCV-OH; disulfide 3-8) ) reads 0.16

Item: C[C@H](N)C(=O)N[C@@H](CC(=O)O)C(=O)N[C@H]1CSSC[C@@H](C(=O)N[C@@H](C)C(=O)O)NC(=O)[C@H](Cc2ccc(O)cc2)NC(=O)[C@H](CCCCN)NC(=O)[C@H](Cc2c[nH]c3ccccc23)NC(=O)[C@H](Cc2ccccc2)NC1=O (H-ADCFWKYCA-OH; disulfide 3-8) | EC50: 0.4

// EC50 value for CC(C)[C@H](NC(=O)[C@@H]1CSSC[C@H](NC(=O)[C@H](CC(=O)O)NC(=O)[C@H](C)NC(=O)[C@@H](N)[C@@H](C)O)C(=O)N[C@@H](Cc2ccccc2)C(=O)N[C@@H](Cc2c[nH]c3ccccc23)C(=O)N[C@@H](CCCCN)C(=O)N[C@@H](Cc2ccc(O)cc2)C(=O)N1)C(=O)O (H-TADCFWKYCV-OH; disulfide 4-9) : 0.11

Query NCCCC[C@@H]1NC(=O)[C@H](Cc2c[nH]c3ccccc23)NC(=O)[C@H](Cc2ccccc2)NC(=O)[C@@H](N)CSSC[C@@H](C(=O)O)NC(=O)[C@H](Cc2ccc(O)cc2)NC1=O (H-CFWKYC-OH; disulfide 1-6) yields EC50 of 1.6
